- Test Description: Clearance in Sprague-Dawley rat at 10 mg/kg, po by LC-MS/MS method
- Assay type: ADME, organism-based
- Condition Notes: in vivo
Measurement Type: CL/F (mL/min/kg)

[
  {
    "Substance Smiles": "CNC(=O)Cn1cc(-c2cnc(N)c3c(-c4ccc(Oc5ccccc5)cc4)csc23)cn1",
    "Number": 145
  }
]

---

- Test Description: Clearance in Sprague-Dawley rat at 2.5 mg/kg, iv by LC-MS/MS method
- Assay type: ADME, organism-based
- Condition Notes: in vivo

[
  {
    "Substance Smiles": "CNC(=O)Cn1cc(-c2cnc(N)c3c(-c4ccc(Oc5ccccc5)cc4)csc23)cn1",
    "clearance": "28.6 mL/min/kg"
  }
]

---

- Test Description: Tmax in Sprague-Dawley rat at 2.5 mg/kg, iv by LC-MS/MS method
- Assay type: ADME, organism-based
- Condition Notes: in vivo
Measurement Type: Tmax

[
  {
    "Substance Smiles": "CNC(=O)Cn1cc(-c2cnc(N)c3c(-c4ccc(Oc5ccccc5)cc4)csc23)cn1",
    "Result": "6.6 min"
  }
]

---

- Target System: Tyrosine-protein kinase JAK3 (Homo sapiens, UniProt P52333)
- Sequence (P52333 whole entry): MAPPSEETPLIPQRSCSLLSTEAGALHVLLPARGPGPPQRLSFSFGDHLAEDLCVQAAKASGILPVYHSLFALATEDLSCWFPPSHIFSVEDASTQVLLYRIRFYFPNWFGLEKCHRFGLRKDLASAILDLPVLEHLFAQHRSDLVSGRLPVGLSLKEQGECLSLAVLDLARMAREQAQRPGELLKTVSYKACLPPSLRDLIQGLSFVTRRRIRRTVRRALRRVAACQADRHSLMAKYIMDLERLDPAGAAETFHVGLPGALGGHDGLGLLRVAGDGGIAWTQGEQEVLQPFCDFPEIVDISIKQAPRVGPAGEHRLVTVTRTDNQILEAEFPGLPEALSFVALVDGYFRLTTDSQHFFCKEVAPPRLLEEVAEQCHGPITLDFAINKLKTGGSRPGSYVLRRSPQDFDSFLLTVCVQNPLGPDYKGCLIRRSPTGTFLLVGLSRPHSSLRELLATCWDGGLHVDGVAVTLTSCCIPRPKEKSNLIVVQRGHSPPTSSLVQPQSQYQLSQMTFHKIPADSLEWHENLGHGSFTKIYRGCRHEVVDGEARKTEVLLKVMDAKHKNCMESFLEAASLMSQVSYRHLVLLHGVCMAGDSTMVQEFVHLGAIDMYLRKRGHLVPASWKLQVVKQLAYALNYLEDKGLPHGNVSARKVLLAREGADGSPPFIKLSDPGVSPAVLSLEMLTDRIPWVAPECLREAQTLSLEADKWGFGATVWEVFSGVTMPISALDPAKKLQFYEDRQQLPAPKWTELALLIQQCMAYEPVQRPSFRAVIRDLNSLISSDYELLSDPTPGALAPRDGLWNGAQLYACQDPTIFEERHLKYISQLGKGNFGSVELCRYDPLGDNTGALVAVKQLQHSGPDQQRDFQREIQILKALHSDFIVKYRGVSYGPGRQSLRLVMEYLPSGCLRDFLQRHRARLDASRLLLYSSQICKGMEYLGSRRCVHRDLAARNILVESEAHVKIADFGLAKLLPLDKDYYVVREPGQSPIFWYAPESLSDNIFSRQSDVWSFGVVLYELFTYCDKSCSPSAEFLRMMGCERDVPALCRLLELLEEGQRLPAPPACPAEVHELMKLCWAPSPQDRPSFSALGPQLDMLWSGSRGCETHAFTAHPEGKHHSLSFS
- Test Description: Inhibition of JAK3 (unknown origin) using poly (Glu-Tyr, 4:1) substrate incubated for 60 mins by ELISA method
Measurement Type: IC50

[
  {
    "Substance Smiles": "CNC(=O)Cn1cc(-c2cnc(N)c3c(-c4ccc(Oc5ccccc5)cc4)csc23)cn1",
    "Result": "> 10 µM"
  }
]

---

- Test Description: AUC (0 to t) in Sprague-Dawley rat at 2.5 mg/kg, iv by LC-MS/MS method
- Format: ADME, organism-based
- Condition Notes: in vivo
Measurement Type: AUC(0-t) (ng·h/mL)

[
  {
    "Substance Smiles": "CNC(=O)Cn1cc(-c2cnc(N)c3c(-c4ccc(Oc5ccccc5)cc4)csc23)cn1",
    "Number": 1460
  }
]

---

- Test Description: Mean residence time in Sprague-Dawley rat at 10 mg/kg, po by LC-MS/MS method
- Type: ADME, organism-based
- Condition Notes: in vivo

[
  {
    "Substance Smiles": "CNC(=O)Cn1cc(-c2cnc(N)c3c(-c4ccc(Oc5ccccc5)cc4)csc23)cn1",
    "MRT [h]": 1.48
  }
]

---

- Test Description: Half life in Sprague-Dawley rat at 2.5 mg/kg, iv by LC-MS/MS method
- Type: ADME, organism-based
- Condition Notes: in vivo

[
  {
    "Substance Smiles": "CNC(=O)Cn1cc(-c2cnc(N)c3c(-c4ccc(Oc5ccccc5)cc4)csc23)cn1",
    "half-life (min)": 21.6
  }
]

---

- Test Description: Oral bioavailability in Sprague-Dawley rat at 10 mg/kg by LC-MS/MS method
- Format: ADME, organism-based
- Condition Notes: in vivo

[
  {
    "Substance Smiles": "CNC(=O)Cn1cc(-c2cnc(N)c3c(-c4ccc(Oc5ccccc5)cc4)csc23)cn1",
    "bioavailability [%]": 23.4
  }
]

---

- Test Description: AUC (0 to t) in Sprague-Dawley rat at 10 mg/kg, po by LC-MS/MS method
- Format: ADME, organism-based
- Condition Notes: in vivo
Measurement Type: AUC(0-t) (ng·h/mL)

[
  {
    "Substance Smiles": "CNC(=O)Cn1cc(-c2cnc(N)c3c(-c4ccc(Oc5ccccc5)cc4)csc23)cn1",
    "Number": 1370
  }
]

---

- Test Description: Half life in Sprague-Dawley rat at 10 mg/kg, po by LC-MS/MS method
- Type: ADME, organism-based
- Condition Notes: in vivo

[
  {
    "Substance Smiles": "CNC(=O)Cn1cc(-c2cnc(N)c3c(-c4ccc(Oc5ccccc5)cc4)csc23)cn1",
    "half-life, h": 1.01
  }
]

---

- Test Description: Mean residence time in Sprague-Dawley rat at 2.5 mg/kg, iv by LC-MS/MS method
- Format: ADME, organism-based
- Condition Notes: in vivo
Measurement Type: MRT (min)

[
  {
    "Substance Smiles": "CNC(=O)Cn1cc(-c2cnc(N)c3c(-c4ccc(Oc5ccccc5)cc4)csc23)cn1",
    "Number": 25.8
  }
]

Sourced from ChEMBL document CHEMBL3603780
